Entries and their glass transition temperature values follow.
readout-type: glass transition temperature (°C)

{"compound": "*Oc1cc(CCCCCCCCC)cc(OC(=O)c2cccc(C(*)=O)c2)c1 (repeat unit)", "recorded-value": 41.50}
{"compound": "*OC(COC(=O)c1c(F)c(F)c(-c2c(F)c(F)c(C(*)=O)c(F)c2F)c(F)c1F)COc1ccc(/N=N/c2ccc(C#N)cc2)cc1 (repeat unit)", "recorded-value": 112.00}
{"compound": "*CCCCCC(=O)O* (repeat unit) [Poly(caprolactone)]", "recorded-value": 55.0}
{"compound": "*CC(*)C(=O)N1CCOCC1 (repeat unit)", "recorded-value": 150.00}
{"compound": "*CC(*)c1ccc(CCCCCCCCCC)cc1 (repeat unit)", "recorded-value": -65.00}
{"compound": "*CC(*)c1ccc(COCC(F)(F)C(F)(F)C(F)(F)C(F)(F)F)cc1 (repeat unit)", "recorded-value": 23.00}
{"compound": "*CC(*)c1c(Cl)cccc1Cl (repeat unit)", "recorded-value": 165.00}
{"compound": "*Oc1cc(OC(=O)c2ccc(OCCCC)cc2)c(OC(=O)C(C)CCC(*)=O)cc1OC(=O)c1ccc(OCCCC)cc1 (repeat unit)", "recorded-value": 55.00}
{"compound": "*CC(*)OCCOc1ccc(/N=N/c2ccc(C#N)cc2)cc1 (repeat unit)", "recorded-value": 61.00}
{"compound": "*CC(*)(C)C(=O)OCCCCCCOc1ccc(C(=O)Oc2ccc(/N=N/c3ccc(C#N)cc3)c3ccccc23)cc1 (repeat unit)", "recorded-value": 41.00}
{"compound": "*Oc1ccc(-c2ccc(OC(=O)c3ccc(C(=O)c4ccc(C(*)=O)cc4)cc3)c(-c3ccccc3)c2)cc1-c1ccccc1 (repeat unit)", "recorded-value": 184.50}
{"compound": "*Oc1ccc2cc(OC(=O)c3ccc(Oc4ccc(C(*)=O)cc4)cc3)ccc2c1 (repeat unit)", "recorded-value": 145.00}
{"compound": "*OC(CC(*)=O)C(C)(Cl)Cl (repeat unit)", "recorded-value": 109.00}
{"compound": "*CCCCCCCCC(Cl)C(*)Cl (repeat unit)", "recorded-value": -30.00}
{"compound": "*c1ccc(Cc2ccc(NC(=O)c3cccc(-c4nc5cc(-c6ccc7[nH]c(-c8cccc(C(=O)Nc9ccc(Cc%10ccc(-n%11c(=O)c%12cc%13c(=O)n(*)c(=O)c%13cc%12c%11=O)cc%10)cc9)c8)nc7c6)ccc5[nH]4)c3)cc2)cc1 (repeat unit)", "recorded-value": 277.00}
{"compound": "*c1ccc2c(c1)C(=O)N(c1ccc(Oc3ccccc3Oc3ccc(N4C(=O)c5ccc(C(*)(C(F)(F)F)C(F)(F)F)cc5C4=O)cc3C(F)(F)F)c(C(F)(F)F)c1)C2=O (repeat unit)", "recorded-value": 247.00}

====

Entries and their glass transition temperature values follow.
readout-type: glass transition temperature (°C)

{"compound": "*O[Si](*)(C)CCCCCCOc1ccc(C(=O)Oc2ccc(OCCCCCC)cc2)cc1 (repeat unit)", "readout-type": "glass transition temperature", "recorded-value": 12.00}
{"compound": "*C1C2CC(C(=O)OCCc3ccc(N(c4ccccc4)c4ccccc4)cc3)C(C2)C1* (repeat unit)", "readout-type": "glass transition temperature", "recorded-value": 307.00}
{"compound": "*CCC(c1ccccc1)[Si](*)(C)C (repeat unit)", "readout-type": "glass transition temperature", "recorded-value": 27.00}
{"compound": "*CC(*)(CC(=O)OCCCCl)C(=O)OCCCCl (repeat unit)", "readout-type": "glass transition temperature", "recorded-value": 47.00}
{"compound": "*OP(=O)(Oc1ccc(OC)cc1)Oc1c(C)cc(S(=O)(=O)c2cc(C)c(*)c(C)c2)cc1C (repeat unit)", "readout-type": "glass transition temperature", "recorded-value": 147.00}
{"compound": "*OP(=O)(Oc1ccc(C(C)(C)c2ccc(*)cc2)cc1)Oc1c(Cl)cc(Cl)cc1Cl (repeat unit)", "readout-type": "glass transition temperature", "recorded-value": 94.00}
{"compound": "*Oc1ccc2c(c1)C(C)(c1ccc(OC(=O)c3cccc(C(*)=O)c3)cc1)CC2(C)C (repeat unit)", "readout-type": "glass transition temperature", "recorded-value": 230.50}
{"compound": "*c1ccc(S(=O)(=O)c2ccc(-n3nc(-c4ccccc4)c4ccc(S(=O)(=O)c5ccc6c(-c7ccccc7)nn(*)c(=O)c6c5)cc4c3=O)cc2)cc1 (repeat unit)", "readout-type": "glass transition temperature", "recorded-value": 422.00}
{"compound": "*c1ccc2c(c1)C(=O)N(c1ccc(Cc3ccc(N4C(=O)c5ccc(C(*)(C(F)(F)F)C(F)(F)F)cc5C4=O)c(C(C)(C)C)c3)cc1C(C)(C)C)C2=O (repeat unit)", "readout-type": "glass transition temperature", "recorded-value": 274.00}
{"compound": "*Oc1ccc(C2(c3ccc(Oc4ccc(C(=O)c5cccc(C(=O)c6ccc(*)cc6)c5)cc4)cc3)CCC3CCCCC3C2)cc1 (repeat unit)", "readout-type": "glass transition temperature", "recorded-value": 194.00}
{"compound": "*Oc1ccc(NC(=O)c2ccc(Oc3ccc(C(C)(C)c4cccc(C(C)(C)c5ccc(Oc6ccc(C(=O)Nc7ccc(Oc8ccc(C(c9ccc(*)cc9)(C(F)(F)F)C(F)(F)F)cc8)cc7)cc6)cc5)c4)cc3)cc2)cc1 (repeat unit)", "readout-type": "glass transition temperature", "recorded-value": 154.00}
{"compound": "*c1ccc(Oc2ccc(-c3nc4ccc(Oc5ccc(N6C(=O)c7ccc(C(c8ccc9c(c8)C(=O)N(c8ccc(Oc%10ccc%11nc(*)c(-c%12ccccc%12)nc%11c%10)cc8)C9=O)(C(F)(F)F)C(F)(F)F)cc7C6=O)cc5)cc4nc3-c3ccccc3)cc2)cc1 (repeat unit)", "readout-type": "glass transition temperature", "recorded-value": 267.00}
{"compound": "*CCCCCCOC(=O)C(CCCCCCP(=O)(O)O)C(=O)OCCCCCCOc1ccc(-n2on2-c2ccc(O*)cc2)cc1 (repeat unit)", "readout-type": "glass transition temperature", "recorded-value": 21.00}
{"compound": "*CC(*)C(=O)Oc1ccccc1Cl (repeat unit)", "readout-type": "glass transition temperature", "recorded-value": 318.00}
{"compound": "*CC(O)COc1ccc(C(C)(C)c2ccc(OCC(O)COc3ccc(Oc4ccc(O*)cc4)cc3)cc2)cc1 (repeat unit)", "readout-type": "glass transition temperature", "recorded-value": 85.00}
{"compound": "*Nc1cccc(CCc2ccc(NC(=O)c3ccc(C(*)=O)cc3)cc2)c1 (repeat unit)", "readout-type": "glass transition temperature", "recorded-value": 203.00}
{"compound": "*CC(=O)Nc1ccc(Oc2cccc(NC(=O)CN3C(=O)c4ccc(C(=O)c5ccc6c(c5)C(=O)N(*)C6=O)cc4C3=O)c2)cc1 (repeat unit)", "readout-type": "glass transition temperature", "recorded-value": 226.00}
{"compound": "*/C=C/c1ccc(/C=C/[Si](C)(C)c2cccc([Si](*)(C)C)c2)cc1 (repeat unit)", "readout-type": "glass transition temperature", "recorded-value": 33.00}
{"compound": "*c1ccc(Oc2ccc(-c3ccc(Oc4ccc(N5C(=O)c6ccc(Oc7cc8ccccc8cc7Oc7ccc8c(c7)C(=O)N(*)C8=O)cc6C5=O)cc4)cc3)cc2)cc1 (repeat unit)", "readout-type": "glass transition temperature", "recorded-value": 222.50}
{"compound": "*Oc1ccc(C(c2ccc(Oc3ccc(C(=O)c4cccc5cccc(C(=O)c6ccc(*)cc6)c45)cc3)cc2)(C(F)(F)F)C(F)(F)F)cc1 (repeat unit)", "readout-type": "glass transition temperature", "recorded-value": 213.00}
{"compound": "*Oc1ccc(C(c2ccccc2)(c2ccccc2)c2ccc(OC(=O)c3ccc(C(*)=O)cc3)cc2)cc1 (repeat unit)", "readout-type": "glass transition temperature", "recorded-value": 210.00}
{"compound": "*c1ccc(OCCCCCCCCCCCOC(=O)CCCCCCCCC(=O)OCCCCCCCCCCCOc2ccc(-c3nnc(*)s3)cc2)cc1 (repeat unit)", "readout-type": "glass transition temperature", "recorded-value": 52.00}
{"compound": "*Oc1ccc(CC(NC(=O)CCc2ccc(OC(=O)CCC(*)=O)cc2)C(=O)OC(C)C)cc1 (repeat unit)", "readout-type": "glass transition temperature", "recorded-value": 82.00}
{"compound": "*OC(COC(*)=O)COC(C)(C)C (repeat unit)", "readout-type": "glass transition temperature", "recorded-value": 18.00}
{"compound": "*CC/C=C(/*)CCCCCCCCCC (repeat unit)", "readout-type": "glass transition temperature", "recorded-value": -53.00}
{"compound": "*c1ccc2c(c1)C(=O)N(c1ccc(Cc3ccc(N4C(=O)c5ccc(C(*)(C(F)(F)F)C(F)(F)F)cc5C4=O)cc3)cc1)C2=O (repeat unit)", "readout-type": "glass transition temperature", "recorded-value": 297.00}
{"compound": "*c1cc(Br)c(-c2c(Br)cc(N3C(=O)c4ccc(-c5ccc6c(c5)C(=O)N(*)C6=O)cc4C3=O)cc2C(=O)OCCCC)c(C(=O)OCCCC)c1 (repeat unit)", "readout-type": "glass transition temperature", "recorded-value": 196.00}
{"compound": "*Oc1ccc(S(=O)(=O)c2ccc(Oc3c(C)cc(C(c4cc(C)c(*)c(C)c4)(C(F)(F)F)C(F)(F)F)cc3C)cc2)cc1 (repeat unit)", "readout-type": "glass transition temperature", "recorded-value": 248.00}
